experimental-protocol: Solubility at 7.4 pH
Format: physicochemical
condition-label: pH 7.4
Would you kindly list solubility for each of these compounds?
Numbers only, in µg/mL.

CN(C)CCNC(=O)c1ccc(-c2nn(C)/c(=N/C3CCCCC3)s2)cc1 : 83

Look at this compound and give its reported solubility. `Cn1nc(-c2ccc(C(=O)NCCN3CCOCC3)cc2)s/c1=N\C1CCCCC1` 17

---

Exercise: state measured pIC50 for each of the compounds provided.
assayed-system: High affinity 3',5'-cyclic-AMP phosphodiesterase 7A (Homo sapiens, UniProt Q13946)
Sequence (Q13946 whole entry): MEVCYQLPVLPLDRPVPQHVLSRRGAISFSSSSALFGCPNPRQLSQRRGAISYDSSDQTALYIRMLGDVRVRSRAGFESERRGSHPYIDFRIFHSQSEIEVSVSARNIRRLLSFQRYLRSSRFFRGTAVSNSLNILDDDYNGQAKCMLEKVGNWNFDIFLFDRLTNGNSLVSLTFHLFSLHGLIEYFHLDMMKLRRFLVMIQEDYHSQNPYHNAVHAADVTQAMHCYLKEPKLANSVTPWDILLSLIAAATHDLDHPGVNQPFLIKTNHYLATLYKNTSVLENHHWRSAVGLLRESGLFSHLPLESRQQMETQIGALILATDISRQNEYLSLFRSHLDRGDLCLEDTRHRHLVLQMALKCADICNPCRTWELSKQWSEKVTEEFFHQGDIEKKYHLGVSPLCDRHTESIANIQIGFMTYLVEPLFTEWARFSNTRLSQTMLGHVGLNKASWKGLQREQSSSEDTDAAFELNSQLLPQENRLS
One number for each entry, as −log10 of the molar value.

Worked examples follow.
CN(C)CCNC(=O)c1ccc(-c2nn(C)/c(=N/C3CCCCC3)s2)cc1 : 7.22
Cn1nc(-c2ccc(Cl)cc2)s/c1=N\c1cccc(C#N)c1 : 5.24
COC(=O)c1ccccc1-c1nn(C)/c(=N/C2CCCCC2)s1 : 5.12

Field: pIC50. Fill in for each record below.
1. Cn1nc(-c2ccc(Cl)cc2)s/c1=N\c1cccc(-c2noc(O)n2)c1
2. Cn1nc(-c2ccc(C(N)=O)c(N)c2)s/c1=N\C1CCCCC1
3. Cn1nc(-c2ccc(Cl)cc2)s/c1=N\c1cccc(CC(=O)O)c1
4. Cn1nc(-c2ccc(Cl)cc2)s/c1=N\C1CCC1
5. Cn1nc(-c2ccc3c(N)ncnc3c2)s/c1=N\C1CCCCC1
6. Cn1nc(-c2ccc(S(N)(=O)=O)cc2)s/c1=N\C1CCCCC1
7. CCNS(=O)(=O)c1cc(-c2nn(C)/c(=N/C3CCCCC3)s2)ccc1Cl

6.36
7.10
5.67
5.32
7.70
6.82
7.70

Field request: pIC50 | item: Cn1nc(-c2ccc(Cl)cc2)s/c1=N\C1CN2CCC1C2 (stereo unspecified) 5.23

---

Parameter 'readout' = IC50; parameter 'system' = High affinity 3',5'-cyclic-AMP phosphodiesterase 7A (Homo sapiens).
Answers are plain numbers, in nM.

Cn1nc(-c2ccc(C(N)=O)c(O)c2)s/c1=N\C1CCCCC1 : 120
Cn1nc(-c2ccc(Cl)cc2)s/c1=N\c1ccc(O)cc1 : 1700
Cn1nc(-c2ccc(Cl)cc2)s/c1=N\C1CCCC1 : 3080

Provide IC50 values for the following items, in order.
1. Cn1nc(-c2ccc(Cl)cc2)s/c1=N\C1CCC(N)CC1 (stereo unspecified)
2. COc1cc(-c2nn(C)/c(=N/C3CCCCC3)s2)ccc1C(N)=O
3. Cn1nc(-c2ccccc2O)s/c1=N\C1CCCCC1

1. 5900
2. 470
3. 6400

---

Exercise: for every item that follows, state its recorded IC50.
assayed-system: Phosphodiesterase 1 (Homo sapiens, UniProt P54750+Q01064+Q14123)
experimental-protocol: Inhibition of human Phosphodiesterase 1 purified from THP-1 cells
Type: cell-free
Answers are plain numbers, in µM.

Worked set:
Cn1nc(-c2ccc(Cl)cc2)s/c1=N\c1cccc(C(=O)O)c1O : 9.28
Cn1nc(-c2ccc(Cl)cc2)s/c1=N\c1ccc(O)c(C(=O)O)c1 : 5.23
Cn1nc(-c2ccc(Cl)cc2)s/c1=N\c1cccc(-c2nn[nH]n2)c1 : 3.34

Next, consider the following molecule.
Could you share what IC50 was measured for `Cn1nc(-c2ccc(Cl)cc2)s/c1=N\c1cccc(-c2noc(O)n2)c1` , tested on Phosphodiesterase 1 (Homo sapiens, UniProt P54750+Q01064+Q14123)? 3.56
